Target: His-tagged cynomolgus monkey IGF1R protein (ACRO Biosystems Inc., Cat #: IGR-C5225) (cynomolgus monkey)
Test: SPR (Biacore 8K), antibody captured on Protein A chip, antigen as analyte, 1:1 model
readoutLabel: pKd
API: returns pKd as number; meaning -log10 of concentration in mol/L.

Guide cases for pKd, answers given:
INSERT INTO assay_data (binder, readoutlabel, observedmeasurement) VALUES
  ('anti-IGF1R antibody 10G1 (antibody, human IgG1, V domains shown) VH: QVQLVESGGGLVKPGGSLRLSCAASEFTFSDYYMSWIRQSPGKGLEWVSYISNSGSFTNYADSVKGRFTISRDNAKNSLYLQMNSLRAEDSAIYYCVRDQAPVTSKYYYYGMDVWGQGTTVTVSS VL: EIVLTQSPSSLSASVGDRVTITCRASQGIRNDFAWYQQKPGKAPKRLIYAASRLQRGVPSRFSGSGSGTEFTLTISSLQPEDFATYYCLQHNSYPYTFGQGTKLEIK', 'pKd', 8.07),
  ('anti-IGF1R antibody 10D1 (antibody, human IgG1, V domains shown) VH: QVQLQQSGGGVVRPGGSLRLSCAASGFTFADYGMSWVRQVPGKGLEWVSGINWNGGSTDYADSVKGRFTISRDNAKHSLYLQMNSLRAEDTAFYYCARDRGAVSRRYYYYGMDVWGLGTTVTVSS VL: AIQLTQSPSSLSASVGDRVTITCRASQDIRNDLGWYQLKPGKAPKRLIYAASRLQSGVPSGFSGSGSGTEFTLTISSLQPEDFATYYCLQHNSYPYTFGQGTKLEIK', 'pKd', 8.68),
  ('anti-IGF1R antibody 12A4 (antibody, V domains shown) VH: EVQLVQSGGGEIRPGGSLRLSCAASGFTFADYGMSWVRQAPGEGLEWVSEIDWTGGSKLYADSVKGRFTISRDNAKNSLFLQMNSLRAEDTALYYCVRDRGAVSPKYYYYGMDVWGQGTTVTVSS VL: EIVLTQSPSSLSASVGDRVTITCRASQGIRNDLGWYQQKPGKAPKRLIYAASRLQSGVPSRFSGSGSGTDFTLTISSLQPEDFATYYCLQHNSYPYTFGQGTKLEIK', 'pKd', 9.25);

If you can, please state the reported pKd value of anti-IGF1R antibody 12D1 (antibody, human IgG1, V domains shown) VH: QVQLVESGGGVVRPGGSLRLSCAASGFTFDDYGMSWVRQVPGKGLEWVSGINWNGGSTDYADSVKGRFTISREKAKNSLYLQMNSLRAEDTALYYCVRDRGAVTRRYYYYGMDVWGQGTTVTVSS VL: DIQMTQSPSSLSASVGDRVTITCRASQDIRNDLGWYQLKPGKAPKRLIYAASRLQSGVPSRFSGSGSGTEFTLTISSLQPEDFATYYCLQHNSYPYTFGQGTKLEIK .
8.55
